Biological target: T1, human APJ receptor (hAPJ) (human, UniProt P35414 1-380)
T1 sequence (looked up): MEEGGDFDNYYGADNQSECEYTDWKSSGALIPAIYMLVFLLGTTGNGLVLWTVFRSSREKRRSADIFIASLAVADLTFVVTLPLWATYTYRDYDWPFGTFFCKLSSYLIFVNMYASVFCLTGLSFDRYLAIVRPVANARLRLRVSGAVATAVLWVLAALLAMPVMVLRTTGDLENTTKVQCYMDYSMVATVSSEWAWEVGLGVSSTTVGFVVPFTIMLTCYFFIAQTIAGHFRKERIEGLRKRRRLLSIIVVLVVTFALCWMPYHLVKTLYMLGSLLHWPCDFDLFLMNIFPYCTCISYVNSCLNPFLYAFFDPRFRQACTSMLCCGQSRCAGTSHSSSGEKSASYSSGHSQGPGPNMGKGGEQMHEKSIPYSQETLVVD
Assay: cell-based or functional assay
Bridges are numbered along the chain shown (N, C = ends). [ ]: non-standard residue; d: D form. pGlu = O=C1CC[C@@H](C(=O)O)N1; dNle = CCCC[C@@H](N)C(=O)O; hCys = N[C@@H](CCS)C(=O)O; Nle = CCCC[C@H](N)C(=O)O
MEASURED_PARAMETER: hAPJ Ca^2+ Flux EC50

| BINDER | hAPJ Ca^2+ Flux EC50 |
| --- | --- |
| ERPCLSCKGPL (pE at 1; disulfide C4-C7; Lys 8 N6 carries the BCN carbamate, joined by click reaction to azido-dPEG23-amide of docos-21-ene-1,11,11-tricarboxylic acid (fatty acid-PEG linker, compound A); D-Nle at 11 with C-terminal NH(Phenethyl) amide) [Apelin cyclic peptide conjugated to a fatty acid via a BCN-PEG linker: …] | 2480 nM |
| Ac-[dC]RPRLS[hCys]KGP[dNle][dA][dF]-OH (not fully specified; printed as Ac-c-R-P-R-L-S-(hC)-K-G-P-(D-Nle)-a-f-OH; cysteine pairing not given here) [Ac-c-R-P-R-L-S-(hC)-K-G-P-(D-Nle)-a-f-OH] | 79.3 nM |

Now look at this entry.
Any idea what hAPJ Ca^2+ Flux EC50 was measured for [pGlu]RCRLSCKGP[Nle]PF-OH (disulfide 3-7; SMILES CCCC[C@H](NC(=O)[C@@H]1CCCN1C(=O)CNC(=O)[C@H](CCCCN)NC(=O)[C@@H]1CSSC[C@H](NC(=O)[C@H](CCCNC(=N)N)NC(=O)[C@@H]2CCC(=O)N2)C(=O)N[C@@H](CCCNC(=N)N)C(=O)N[C@@H](CC(C)C)C(=O)N[C@@H](CO)C(=O)N1)C(=O)N1CCC[C@H]1C(=O)N[C@@H](Cc1ccccc1)C(=O)O) [pE-R-C*-R-L-S-C*-K-G-P-Nle-P-F-OH] ? 1 nM
